Subject Of Test: CDK2/CycA (Homo sapiens (Human), UniProt P24941)
Measurement Notes: Z'LYTE kinase assay for CDK2/CycA at Km ATP
Format: biochemical
Condition Notes: read-out: IC50 CDK2 Z′LYTE kinase assay
Please note: IC50 exactly at 6 nM is n. Only values below 6 nM get y.

A record lists COc1cccc(F)c1C(=O)Nc1c[nH]nc1C(=O)NC1CCN(Cc2cccc(NC(=O)/C=C/CN(C)C)c2)CC1 . Is its IC50 below 6 nM?
n

Lab log: compare recorded IC50 with 6 nM; is it strictly lower for CCOc1cccc(Cl)c1C(=O)Nc1c[nH]nc1C(=O)NC1CCN(S(=O)(=O)c2cccc(NC(=O)/C=C/CN(C)C)c2)CC1 ?
y

Criterion: IC50 strictly below 6 nM. Is it met by CN(C)C/C=C/C(=O)Nc1cccc(S(=O)(=O)N2CCC(NC(=O)c3n[nH]cc3NC(=O)c3c(Cl)cc(Cl)cc3Cl)CC2)c1 ?
n

Please state whether IC50 is below 6 nM for C=CC(=O)Nc1cccc(S(=O)(=O)N2CCC(NC(=O)c3n[nH]cc3NC(=O)c3c(F)cc(F)cc3F)CC2)c1
n

Below 6 nM on IC50? Entry CC(C)c1[nH]nc(C(=O)NC2CCN(S(=O)(=O)c3cccc(NC(=O)/C=C/CN(C)C)c3)CC2)c1NC(=O)c1c(Cl)cccc1Cl
n

Quick check: IC50 of CCC(=O)Nc1cccc(S(=O)(=O)N2CCC(NC(=O)c3n[nH]cc3NC(=O)c3c(Cl)cccc3Cl)CC2)c1 under 6 nM?
y

Item CN(C)C/C=C/C(=O)Nc1cccc(C(=O)Nc2ccc(NC(=O)c3n[nH]cc3NC(=O)c3c(Cl)cccc3Cl)cc2)c1 : IC50 beneath 6 nM, strictly?
n

hey, is IC50 for CN(C)C/C=C/C(=O)Nc1ccc(S(=O)(=O)N2CCC(NC(=O)c3n[nH]cc3NC(=O)c3c(Cl)cccc3Cl)CC2)cc1 lower than 6 nM or not?
y

IC50 under 6 nM? Item: CN(C)C/C=C/C(=O)Nc1ccc(C(=O)Nc2ccc(NC(=O)c3n[nH]cc3NC(=O)c3c(Cl)cccc3Cl)cc2)cc1
n

Answer whether the molecule COc1ccccc1CC(=O)Nc1c[nH]nc1C(=O)NC1CCN(S(=O)(=O)c2cccc(NC(=O)/C=C/CN(C)C)c2)CC1 has IC50 strictly less than 6 nM
y

IC50 strictly < 6 nM for this molecule? CCC(=O)Nc1cccc(CN2CCC(NC(=O)c3n[nH]cc3NC(=O)c3c(Cl)cccc3Cl)CC2)c1
n

Input CCC(=O)Nc1cccc(S(=O)(=O)N2CCC(NC(=O)c3n[nH]cc3NC(=O)c3c(Cl)cccc3OC)CC2)c1 ; condition: IC50 strictly below 6 nM. Does it hold?
y

Field: below-cutoff. Rule: recorded IC50 strictly less than 6 nM. Subject: CN(C)C/C=C/C(=O)Nc1cccc(S(=O)(=O)N2CCC(NC(=O)c3n[nH]cc3NC(=O)c3ccccc3)CC2)c1
y
